Reference for the values: PubChem BioAssay AID1963871

# Test system: KRAS-mutant PDC multicell tumor spheroid viability;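 note: viability read after seven days of drug exposure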
# assayOverview: Anticancer human tumor 521955-158-R2-J5-PDC patient-derived pancreatic carcinoma cell line growth inhibition [KRAS2]
# measurementConditions: second compound 1 µM; first compound 0.0316 µM; stronger effect = lower value
For each entry below, report its viability, T/C value.

Record CC(C)n1nc(-c2ccc3oc(N)nc3c2)c2c(N)ncnc21 + CNCc1ccccc1-c1csc(C(C)Nc2nc(C)nc3cc(OC)c(OC)cc23)c1 . Reported viability, T/C: 30.9%

Record CC(=O)Nc1cccc(-n2c(=O)n(C3CC3)c(=O)c3c(Nc4ccc(I)cc4F)n(C)c(=O)c(C)c32)c1 + CC1OCC2(CCN(c3cnc(Sc4ccnc(N)c4Cl)c(N)n3)CC2)C1N . Reported viability, T/C: 9.6%

Record CC1(C)CCC(CN2CCN(c3ccc(C(=O)NS(=O)(=O)c4ccc(NCC5CCOCC5)c([N+](=O)[O-])c4)c(Oc4cnc5[nH]ccc5c4)c3)CC2)=C(c2ccc(Cl)cc2)C1 + COc1cc2nc(C)nc(NC(C)c3cc(N)cc(C(F)(F)F)c3)c2cc1OC1CCOC1 . Reported viability, T/C: 71.9%
